Test: Pharmacokinetic assay in rats
Format: in vivo, SD rat
Conditions: rat, plasma, po; male SD rats, i.g., 3 mg/kg
Protocol: (4) Pharmacokinetic Assay in Rats Assay objective: after administration of test compounds to rats, the pharmacokinetic behavior of the compounds disclosed herein was investigated. […] The concentration of the drug in plasma at each time point was determined after sample collection at all time points. […]
Criterion: MRT meeting or surpassing 5 h. Met: true. Not met: false.

Field: example entries. Status: answers known.
* CN1CCN(c2ccc(C(=O)Nc3n[nH]c4ccc(Cc5cc(F)cc(F)c5)cc34)c(NC3CCOCC3)c2)CC1 [Entrectinib, reference compound] | false
* [2H]C([2H])(c1cc(F)cc(F)c1)c1ccc2[nH]nc(NC(=O)c3ccc(N4CCN(C)CC4)cc3NC3CCOCC3)c2c1 [Compound T-7] | true
* [2H]C([2H])([2H])N1CCN(c2ccc(C(=O)Nc3n[nH]c4ccc(Cc5cc(F)cc(F)c5)cc34)c(NC3CCOCC3)c2)CC1 [Compound T-1] | true

Please turn your attention to the following entry.
[ask] Please indicate if the recorded MRT for [2H]C1([2H])CC(Nc2cc(N3CCN(C)CC3)ccc2C(=O)Nc2n[nH]c3ccc(Cc4cc(F)cc(F)c4)cc23)CC([2H])([2H])O1 [Compound T-8] meets or exceeds 5 h.
[reply] false

----------
experiment: Pharmacokinetic assay in rats; type: in vivo, SD rat; settings: male SD rats, i.g., 3 mg/kg
assay.endpoint: Cl_pred (mL/min/kg)
Use mL/min/kg as the unit, but write only the number.

For orientation, consider the following solved cases.
- [2H]C([2H])(c1cc(F)cc(F)c1)c1ccc2[nH]nc(NC(=O)c3ccc(N4CCN(C)CC4)cc3NC3CCOCC3)c2c1 [Compound T-7]: 97.5
- CN1CCN(c2ccc(C(=O)Nc3n[nH]c4ccc(Cc5cc(F)cc(F)c5)cc34)c(NC3CCOCC3)c2)CC1 [Entrectinib, reference compound]: 114
- [2H]C1([2H])CC(Nc2cc(N3CCN(C)CC3)ccc2C(=O)Nc2n[nH]c3ccc(Cc4cc(F)cc(F)c4)cc23)CC([2H])([2H])O1 [Compound T-8]: 113

[ask] Specify Cl_pred for [2H]C([2H])([2H])N1C([2H])([2H])C([2H])([2H])N(c2ccc(C(=O)Nc3n[nH]c4ccc(Cc5cc(F)cc(F)c5)cc34)c(NC3CCOCC3)c2)C([2H])([2H])C1([2H])[2H] [Compound T-3] and stop.
[reply] 411

[ask] Specify Cl_pred for [2H]C([2H])([2H])N1CCN(c2ccc(C(=O)Nc3n[nH]c4ccc(Cc5cc(F)cc(F)c5)cc34)c(NC3CCOCC3)c2)CC1 [Compound T-1] and stop.
[reply] 155

----------
test: Liver microsomal metabolism assay, human; format: in vitro ADME; details: pH 7.4; human liver microsomes 0.5 mg/mL, compound 1 μM, 37° C.; read-out: Human liver microsome assay CLint
assay.endpoint: microsomal CLint at 1 μM
A complete answer gives the number followed by the unit.

For orientation, consider the following solved cases.
* [2H]C([2H])(c1cc(F)cc(F)c1)c1ccc2[nH]nc(NC(=O)c3ccc(N4CCN(C)CC4)cc3NC3CCOCC3)c2c1 | 51.1 µL/min/mg
* [2H]c1cc(C(=O)Nc2n[nH]c3ccc(Cc4cc(F)cc(F)c4)cc23)c(NC2CCOCC2)c([2H])c1N1C([2H])([2H])C([2H])([2H])N(C([2H])([2H])[2H])C([2H])([2H])C1([2H])[2H] | 42.5 µL/min/mg

Next item in the queue.
[ask] Specify microsomal CLint at 1 μM for [2H]C([2H])([2H])N1CCN(c2ccc(C(=O)Nc3n[nH]c4ccc(Cc5cc(F)cc(F)c5)cc34)c(NC3CCOCC3)c2)CC1 and stop.
[reply] 34.7 µL/min/mg

----------
Attribute: half-life at 1 μM
experiment: Liver microsomal metabolism assay, rat; format: in vitro ADME; conditions: SD, pH 7.4; rat liver microsomes 0.5 mg/mL, compound 1 μM, 37° C.; read-out: Rat liver microsome assay t1/2
Use min as the unit, but write only the number.

• [2H]C1([2H])N(C)C([2H])([2H])C([2H])([2H])N(c2ccc(C(=O)Nc3n[nH]c4ccc(Cc5cc(F)cc(F)c5)cc34)c(NC3CCOCC3)c2)C1([2H])[2H] [Compound T-2] = 71.2
• [2H]c1c(F)cc(Cc2ccc3[nH]nc(NC(=O)c4ccc(N5CCN(C)CC5)cc4NC4CCOCC4)c3c2)cc1F [Compound T-9] = 41.1
• [2H]C([2H])([2H])N1CCN(c2ccc(C(=O)Nc3n[nH]c4ccc(Cc5cc(F)cc(F)c5)cc34)c(NC3CCOCC3)c2)CC1 [Compound T-1] = 65.2
• [2H]c1cc(C(=O)Nc2n[nH]c3ccc(Cc4cc(F)cc(F)c4)cc23)c(NC2CCOCC2)c([2H])c1N1CCN(C)CC1 [Compound T-4] = 63.3
• [2H]C([2H])(c1cc(F)cc(F)c1)c1ccc2[nH]nc(NC(=O)c3ccc(N4CCN(C)CC4)cc3NC3CCOCC3)c2c1 [Compound T-7] = 41.1

Next item in the queue.
[ask] Specify half-life at 1 μM for [2H]C1([2H])CC(Nc2cc(N3CCN(C)CC3)ccc2C(=O)Nc2n[nH]c3ccc(Cc4cc(F)cc(F)c4)cc23)CC([2H])([2H])O1 [Compound T-8] and stop.
[reply] 41.3

----------
experiment: Liver microsomal metabolism assay, human; format: in vitro ADME; conditions: pH 7.4; human liver microsomes 0.5 mg/mL, compound 1 μM, 37° C.; read-out: Human liver microsome assay CLint
Attribute: microsomal CLint at 1 μM
Use µL/min/mg as the unit, but write only the number.

• [2H]c1cc(C(=O)Nc2n[nH]c3ccc(Cc4cc(F)cc(F)c4)cc23)c(NC2CCOCC2)c([2H])c1N1CCN(C([2H])([2H])[2H])CC1 [Compound T-5] = 48.2

[ask] Specify microsomal CLint at 1 μM for [2H]c1cc(C(=O)Nc2n[nH]c3ccc(Cc4cc(F)cc(F)c4)cc23)c(NC2CCOCC2)c([2H])c1N1CCN(C)CC1 [Compound T-4] and stop.
[reply] 36.2

[ask] Specify microsomal CLint at 1 μM for [2H]C1([2H])CC(Nc2cc(N3CCN(C)CC3)ccc2C(=O)Nc2n[nH]c3ccc(Cc4cc(F)cc(F)c4)cc23)CC([2H])([2H])O1 [Compound T-8] and stop.
[reply] 44.9

----------
assay: Pharmacokinetic assay in rats; assay type: in vivo, SD rat; details: rat, plasma, po; male SD rats, i.g., 3 mg/kg
assay.endpoint: AUC(0-t) (ng·h/mL)
Use ng·h/mL as the unit, but write only the number.

For orientation, consider the following solved cases.
* CN1CCN(c2ccc(C(=O)Nc3n[nH]c4ccc(Cc5cc(F)cc(F)c5)cc34)c(NC3CCOCC3)c2)CC1 [Entrectinib, reference compound] | 1460
* [2H]C([2H])(c1cc(F)cc(F)c1)c1ccc2[nH]nc(NC(=O)c3ccc(N4CCN(C)CC4)cc3NC3CCOCC3)c2c1 | 1770
* [2H]C([2H])([2H])N1CCN(c2ccc(C(=O)Nc3n[nH]c4ccc(Cc5cc(F)cc(F)c5)cc34)c(NC3CCOCC3)c2)CC1 | 1070

[ask] Specify AUC(0-t) for [2H]C([2H])([2H])N1C([2H])([2H])C([2H])([2H])N(c2ccc(C(=O)Nc3n[nH]c4ccc(Cc5cc(F)cc(F)c5)cc34)c(NC3CCOCC3)c2)C([2H])([2H])C1([2H])[2H] and stop.
[reply] 1550

[ask] Specify AUC(0-t) for [2H]C1([2H])CC(Nc2cc(N3CCN(C)CC3)ccc2C(=O)Nc2n[nH]c3ccc(Cc4cc(F)cc(F)c4)cc23)CC([2H])([2H])O1 and stop.
[reply] 1530

----------
assay: Liver microsomal metabolism assay, human; type: in vitro ADME; conditions: pH 7.4; human liver microsomes 0.5 mg/mL, compound 1 μM, 37° C.; read-out: Human liver microsome assay t1/2
assay.endpoint: half-life at 1 μM
A complete answer gives the number followed by the unit.

For orientation, consider the following solved cases.
* [2H]C1([2H])CC(Nc2cc(N3CCN(C)CC3)ccc2C(=O)Nc2n[nH]c3ccc(Cc4cc(F)cc(F)c4)cc23)CC([2H])([2H])O1 [Compound T-8] | 30.9 min
* [2H]c1c(F)cc(Cc2ccc3[nH]nc(NC(=O)c4ccc(N5CCN(C)CC5)cc4NC4CCOCC4)c3c2)cc1F [Compound T-9] | 29.2 min
* [2H]C([2H])(c1cc(F)cc(F)c1)c1ccc2[nH]nc(NC(=O)c3ccc(N4CCN(C)CC4)cc3NC3CCOCC3)c2c1 [Compound T-7] | 27.1 min
* [2H]c1cc(C(=O)Nc2n[nH]c3ccc(Cc4cc(F)cc(F)c4)cc23)c(NC2CCOCC2)c([2H])c1N1C([2H])([2H])C([2H])([2H])N(C([2H])([2H])[2H])C([2H])([2H])C1([2H])[2H] [Compound T-6] | 32.6 min

Next item in the queue.
[ask] Specify half-life at 1 μM for [2H]C([2H])([2H])N1C([2H])([2H])C([2H])([2H])N(c2ccc(C(=O)Nc3n[nH]c4ccc(Cc5cc(F)cc(F)c5)cc34)c(NC3CCOCC3)c2)C([2H])([2H])C1([2H])[2H] [Compound T-3] and stop.
[reply] 35.4 min
